condition_label: in methanol, 323 K
assay_metric: solubility (mole fraction)
Give your answer as a number; write no unit.

Req: Returns the measured solubility (mole fraction) for the input molecule. Input: CC[C@H]1OC(=O)[C@H](C)[C@@H](O[C@H]2C[C@@](C)(OC)[C@@H](O)[C@H](C)O2)[C@H](C)[C@@H](O[C@@H]2O[C@H](C)C[C@H](N(C)C)[C@H]2O)[C@](C)(O)C[C@@H](C)C(=O)[C@H](C)[C@@H](O)[C@]1(C)O.O.O
Resp: 0.0373

###

condition_label: in water, 298 K
assay_metric: solubility (mole fraction)
Give your answer as a number; write no unit.

Req: Returns the measured solubility (mole fraction) for the input compound. Input: CC[C@H]1OC(=O)[C@H](C)[C@@H](O[C@H]2C[C@@](C)(OC)[C@@H](O)[C@H](C)O2)[C@H](C)[C@@H](O[C@@H]2O[C@H](C)C[C@H](N(C)C)[C@H]2O)[C@](C)(O)C[C@@H](C)C(=O)[C@H](C)[C@@H](O)[C@]1(C)O.O.O
Resp: 4.7e-05

###

condition_label: in water, 303.15 K
assay_metric: solubility (mole fraction)
Give your answer as a number; write no unit.

Req: Returns the measured solubility (mole fraction) for the input compound. Input: CC[C@H]1OC(=O)[C@H](C)[C@@H](O[C@H]2C[C@@](C)(OC)[C@@H](O)[C@H](C)O2)[C@H](C)[C@@H](O[C@@H]2O[C@H](C)C[C@H](N(C)C)[C@H]2O)[C@](C)(O)C[C@@H](C)C(=O)[C@H](C)[C@@H](O)[C@]1(C)O.O.O
Resp: 4.2e-05

###

condition_label: in acetone, 313.1 K
assay_metric: solubility (mole fraction)
Give your answer as a number; write no unit.

Req: Returns the measured solubility (mole fraction) for the input compound. Input: CC[C@H]1OC(=O)[C@H](C)[C@@H](O[C@H]2C[C@@](C)(OC)[C@@H](O)[C@H](C)O2)[C@H](C)[C@@H](O[C@@H]2O[C@H](C)C[C@H](N(C)C)[C@H]2O)[C@](C)(O)C[C@@H](C)C(=O)[C@H](C)[C@@H](O)[C@]1(C)O.O.O
Resp: 0.0433

###

condition_label: in ethanol, 303.15 K
assay_metric: solubility (mole fraction)
Give your answer as a number; write no unit.

Req: Returns the measured solubility (mole fraction) for the input compound. Input: CC[C@H]1OC(=O)[C@H](C)[C@@H](O[C@H]2C[C@@](C)(OC)[C@@H](O)[C@H](C)O2)[C@H](C)[C@@H](O[C@@H]2O[C@H](C)C[C@H](N(C)C)[C@H]2O)[C@](C)(O)C[C@@H](C)C(=O)[C@H](C)[C@@H](O)[C@]1(C)O.O.O
Resp: 0.0254

###

condition_label: in methanol, 308 K
assay_metric: solubility (mole fraction)

Req: Returns the measured solubility (mole fraction) for the input molecule. Input: CC[C@H]1OC(=O)[C@H](C)[C@@H](O[C@H]2C[C@@](C)(OC)[C@@H](O)[C@H](C)O2)[C@H](C)[C@@H](O[C@@H]2O[C@H](C)C[C@H](N(C)C)[C@H]2O)[C@](C)(O)C[C@@H](C)C(=O)[C@H](C)[C@@H](O)[C@]1(C)O.O.O
Resp: 0.0215
